target: Trypanothione reductase (Trypanosoma cruzi) (UniProt P28593); test: Inhibition of reduced Trypanosoma cruzei trypanothione reductase at freshly prepared 100 uM
Sequence (P28593 whole entry, looked up): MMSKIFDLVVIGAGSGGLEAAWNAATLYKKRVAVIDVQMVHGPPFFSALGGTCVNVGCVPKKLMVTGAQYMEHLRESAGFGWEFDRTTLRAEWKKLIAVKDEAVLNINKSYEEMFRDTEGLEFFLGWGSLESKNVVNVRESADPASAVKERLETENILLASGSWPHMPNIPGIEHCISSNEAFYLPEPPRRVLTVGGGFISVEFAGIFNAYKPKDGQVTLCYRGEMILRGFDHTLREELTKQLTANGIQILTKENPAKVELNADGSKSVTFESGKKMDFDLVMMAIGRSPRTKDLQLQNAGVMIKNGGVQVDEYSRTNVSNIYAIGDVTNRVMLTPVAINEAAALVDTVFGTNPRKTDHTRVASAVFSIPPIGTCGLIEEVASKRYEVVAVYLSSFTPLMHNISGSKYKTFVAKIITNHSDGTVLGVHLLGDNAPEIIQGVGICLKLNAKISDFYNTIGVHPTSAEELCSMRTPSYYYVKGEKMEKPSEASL
Task for the reader: assign each of the following compounds its reported T1/2.
The answer is to be given in min; state only the numeric part.

INPUT: Reported T1/2 for `O=C(/C=C/c1ccccc1Cl)CCN1CCOCC1` : what is it?
OUTPUT: 2

INPUT: # get_value(readout='T1/2', item= `O=C(/C=C/c1ccccc1Cl)CCN1CCCCC1` )
OUTPUT: 7.5

INPUT: Any idea what T1/2 was measured for `CN(C)CCC(=O)/C=C/c1ccccc1Cl` ?
OUTPUT: 8.6
